- target_system: T1, Asf1 (1-156), conserved N-terminal domain of human Asf1 (human, UniProt Q9Y294 1-156)
- T1 construct: range 1-156; The ITC legend says Asf1 1-156; Recombinant, cloned in peTM30; also called Asf1a 1-156
- T1 sequence (Q9Y294 1-156 limits assumed): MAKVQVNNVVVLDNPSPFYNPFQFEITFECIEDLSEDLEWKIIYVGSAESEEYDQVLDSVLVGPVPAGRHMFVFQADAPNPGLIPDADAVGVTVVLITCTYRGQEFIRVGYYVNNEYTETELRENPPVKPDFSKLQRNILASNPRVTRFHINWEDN
- assay_text: ITC (microcalorimetry); second printing of SEQ ID No 42 in a later block of the 6th table
quantity: pKd
Give bare numbers, as −log10 of the molar value.

Request: Can you share its pKd? I mean this binder: GAMGTLTPKEAELARRIRGAGGRTLNGFG [inhibitor peptide Asf1/H3-H4, peptide i4]
Result: 6.74
